// molecules with Ki on Coagulation factor X (Homo sapiens, UniProt P00742), multi-source literature
measurement.name: Ki (nM)

{"molecule": "CC(C)c1cc(C(C)C)c(S(=O)(=O)N[C@@H](Cc2cccc(C(=N)N)c2)C(=O)N2CCC(CCN=C(N)N)CC2)c(C(C)C)c1", "cmp": "=", "val": 3200}
{"molecule": "CN(C)C(=O)c1ccc(-c2c[nH]c([C@H](Cc3ccccc3)NC(=O)[C@H]3CC[C@H](CN)CC3)n2)cc1", "cmp": ">", "val": 8180}
{"molecule": "N=C(N)c1cccc(CC(NS(=O)(=O)c2cccc(-c3cccc(Cl)c3)c2)C(=O)N2CCC(CCN)CC2)c1 (racemic)", "cmp": "=", "val": 5600}
{"molecule": "Cc1cc2nc([C@@H](CNC(=O)c3c(Cl)cc(-n4cnnc4)cc3C(F)(F)F)c3ccccc3)[nH]c2cc1C", "cmp": "=", "val": 340}
{"molecule": "CC(=N)N1CCC(Oc2nc(Oc3cccc(C(=N)N)c3)c(F)c(C)c2F)C1 (configuration not stated)", "cmp": ">", "val": 5000}
{"molecule": "CCOc1cc(OCC)cc(C(Nc2ccc(C(=N)N)cc2)C(=O)O)c1 (configuration not stated)", "cmp": "=", "val": 5600}
{"molecule": "CC(=O)Nc1cccc(Oc2nc(Oc3cccc(C(=N)N)c3)c(F)c(C)c2F)c1", "cmp": "=", "val": 5800}
{"molecule": "Cc1c(F)c(Oc2cccc(C(=N)N)c2)nc(N2CCN(c3ccco3)CC2)c1F", "cmp": ">", "val": 5000}
{"molecule": "Cc1ccc(NS(=O)(=O)Cc2ccccc2)c(=O)n1CC(=O)NCC1CCc2nc(N)sc2C1 (configuration not stated)", "cmp": "=", "val": 106000}
{"molecule": "CCOC(=O)C(Oc1ccc2c(c1)CN(C(=N)N)CC2)c1ccc(OC2CCN(C(=N)c3ccc(OC)cc3)CC2)cc1 (configuration not stated)", "cmp": "=", "val": 21}
{"molecule": "COc1ccc(-n2nc(C(F)(F)F)c3c2C(=O)N(c2ccc(C4(CN(C)C(C)=O)CC4)cc2)CC3)cc1", "cmp": "=", "val": 0.055}
{"molecule": "N=C(N)c1ccc(/C=C2/CCCC/C(=C/c3ccc(C(=N)N)cc3)C2=O)cc1", "cmp": "=", "val": 0.66}
{"molecule": "COc1ccc2ccc(S(=O)(=O)N[C@H]3CCN(Cc4ccc(C(=N)N)o4)C3=O)cc2c1", "cmp": "=", "val": 570}
{"molecule": "N=C(N)c1cccc(C(=O)NC(C(=O)NCC2CCC(CN)CC2)c2cccc(Cl)c2)c1 (stereo in doubt; 9)", "cmp": "=", "val": 300}
{"molecule": "CN(C)Cc1ccccc1-c1ccc(N2CCc3c(C(F)(F)F)nn(-c4cccc(C#N)c4)c3C2=O)cc1", "cmp": "=", "val": 12}
{"molecule": "N=C(N)c1ccc(-n2ccc3ccc(NC(=O)c4cccc(C(=N)N)c4)cc32)cc1", "cmp": "=", "val": 160}
{"molecule": "COc1ccc(-n2nc(C(F)(F)F)cc2C(=O)Nc2ccc(-c3ccccc3S(N)(=O)=O)cc2F)cc1", "cmp": "=", "val": 4.2}

###

// molecules with pKi on Coagulation factor X (Homo sapiens), multi-source literature
pKi: −log10 of the molar value.
Returns one of 1.0 or 0.0; 1.0 when pKi is >= 7.

{"molecule": "N[C@@H](C(=O)N1CCC[C@H]1C(=O)NCC1CCc2n[nH]cc2C1)C(c1ccccc1)c1ccccc1 (some centres not stated)", "study.system": "Coagulation factor X (Homo sapiens)", "label.class": 0.0}
{"molecule": "CS(=O)(=O)c1ccccc1-c1ccc(N2CCCC(NS(=O)(=O)c3cccnc3)C2=O)c(F)c1 (configuration not stated)", "study.system": "Coagulation factor X (Homo sapiens)", "label.class": 0.0}
{"molecule": "CC(=N)N1CCC(N(CC(C)C(=O)O)c2ccc3nc(C)n(Cc4ccc5ccc(C(=N)N)cc5c4)c3c2)CC1 (configuration not stated)", "study.system": "Coagulation factor X (Homo sapiens)", "label.class": 1.0}
{"molecule": "N=C(N)c1ccc(N)c(CN2CC[C@H](NS(=O)(=O)c3ccc(-c4ccon4)s3)C2=O)c1", "study.system": "Coagulation factor X (Homo sapiens)", "label.class": 1.0}
{"molecule": "N=C(N)c1ccc(CCC(=O)O)c(OCCNC(=O)C2CCN(c3ccncc3)CC2)c1", "study.system": "Coagulation factor X (Homo sapiens)", "label.class": 1.0}
{"molecule": "CC(C)(C)c1ccc(C(=O)NCCCc2cc(C(=N)N)ccc2O)cc1", "study.system": "Coagulation factor X (Homo sapiens)", "label.class": 1.0}
{"molecule": "Cc1c(F)c(Oc2cccc(CC(N)=O)c2)nc(Oc2cccc(C(=N)N)c2)c1F", "study.system": "Coagulation factor X (Homo sapiens)", "label.class": 0.0}
{"molecule": "N=C(N)c1ccc(CNC(=O)[C@@H]2Cc3cccc(c3)NC(=O)CN3CCN(CC3)CC(=O)Nc3ccc(cc3)C[C@@H](NS(=O)(=O)Cc3ccccc3)C(=O)N2)cc1", "study.system": "Coagulation factor X (Homo sapiens)", "label.class": 0.0}
{"molecule": "COc1ccc(-n2nc(C(F)(F)F)cc2C(=O)Nc2ccc(-c3ccccc3S(N)(=O)=O)cc2)c(CN)c1", "study.system": "Coagulation factor X (Homo sapiens)", "label.class": 1.0}
{"molecule": "CC(C)c1cc(C(C)C)c(S(=O)(=O)N[C@@H](Cc2cccc(C(=N)N)c2)C(=O)N2CCC(C(=O)NCCN=C(N)N)CC2)c(C(C)C)c1", "study.system": "Coagulation factor X (Homo sapiens)", "label.class": 0.0}
{"molecule": "N=C(N)c1cccc(CNc2ccc3ccn(-c4cccc(C(=N)N)c4)c3c2)c1", "study.system": "Coagulation factor X (Homo sapiens)", "label.class": 0.0}
{"molecule": "CCOC(=O)CN(Cc1ccc(F)c(F)c1)c1ccc2c(c1)OC(C)(COc1ccc(C(=N)N)cc1)CN2C (configuration not stated)", "study.system": "Coagulation factor X (Homo sapiens)", "label.class": 0.0}
{"molecule": "CCCCc1nc2ccc(OC3CCN(C(C)=N)CC3)cc2n1Cc1ccc2ccc(C(=N)N)cc2c1", "study.system": "Coagulation factor X (Homo sapiens)", "label.class": 1.0}
{"molecule": "N=C(N)c1cccc(C[C@H](NS(=O)(=O)c2cccc(-c3ccc(N)nc3)c2)C(=O)N2CCC(CCN)CC2)c1", "study.system": "Coagulation factor X (Homo sapiens)", "label.class": 0.0}
{"molecule": "CN(C)C(=N)c1ccc(/C=C2/CCCC/C(=C\\c3ccc(C(=N)N(C)C)cc3)C2=O)cc1", "study.system": "Coagulation factor X (Homo sapiens)", "label.class": 0.0}

###

// compounds with Ki on Coagulation factor X (Homo sapiens, UniProt P00742), multi-source literature
In plain terms, low Ki, meaning strictly below 2 µM, gives t, and everything else gives f.

{"compound": "CCOC(=O)C1CCCN(c2ccc(N3C[C@H](CNC(=O)c4ccc(Cl)s4)OC3=O)cc2)C1 (mixture of isomers)", "label.class": "t"}
{"compound": "C[C@@H](C(=O)N1CCOCC1)N1CC[C@H](NS(=O)(=O)c2cc3ncc(Cl)cc3s2)C1=O", "label.class": "f"}
{"compound": "CC(=O)O.CCOC(=O)C1CCN(c2ccc(N3C[C@H](CNC(=O)c4ccc(C(=N)N)cc4)OC3=O)cc2)CC1", "label.class": "f"}
{"compound": "CCOC(=O)C(Cc1ccccc1)C(=O)Nc1ccc2c(c1)N(C)CC(C)(COc1ccc(C(=N)N)cc1)O2 (stereo not given)", "label.class": "f"}
{"compound": "COC(=O)Nc1ccc2c(c1)NC(=O)CCCC[C@H](NC(=O)/C=C/c1cc(Cl)ccc1-n1cnnn1)c1nc-2c[nH]1", "label.class": "f"}
{"compound": "CC(=N)N1CCC(Oc2ccc(C(=O)N[C@@H](COc3cc(C(=N)N)ccc3CC(=O)C(=O)O)CC(=O)O)cc2)CC1", "label.class": "t"}
{"compound": "COc1ccc(-c2cccc(S(=O)(=O)N[C@@H](Cc3cccc(C(=N)N)c3)C(=O)N3CCC(NC(=O)NC4CCCCC4)CC3)c2)c(OC)c1", "label.class": "t"}
{"compound": "C[C@@H](C(=O)N1CCOCC1)N1CC[C@H](NS(=O)(=O)c2cc3nc(Cl)ccc3s2)C1=O", "label.class": "t"}
{"compound": "COc1cccc2c1cc(C(=O)NCc1ccc([N+](C)(C)C)cc1)n2Cc1cccc(C(=N)N)c1", "label.class": "t"}
{"compound": "CSCC[C@H](NC(=O)[C@H](NS(=O)(=O)Cc1ccccc1)[C@@H](C)O)C(=O)NCc1ccc(C(=N)N)cc1", "label.class": "t"}
{"compound": "CC1(C)[C@@H]2C[C@H]3OB([C@H](CCCCN)NC(=O)Cn4nc(CC#N)nc4Cc4ccccc4[N+](=O)[O-])O[C@@]3(C)[C@H]1C2", "label.class": "f"}
{"compound": "N=C(N)c1ccc2scc(C(Cc3ccccc3)C(=O)Nc3ccc(S(=O)(=O)Nc4ccc(Cl)nn4)cc3)c2c1 (stereo not given)", "label.class": "f"}
{"compound": "CCCc1nc2cc(OC3CCN(C(C)=N)CC3)ccc2n1Cc1ccc2ccc(C(=N)N)cc2c1", "label.class": "t"}
{"compound": "CN(C)Cc1nccn1-c1ccc(-n2c(=O)[nH]c3c(C(F)(F)F)nn(-c4ccc5onc(N)c5c4)c3c2=O)c(F)c1", "label.class": "t"}
